molecular target: NS3h (NS3 helicase domain) (Dengue virus serotype 2 (infectious …, UniProt O09234 1646-2093)); assay: competition
MEASURED_ATTRIBUTE: Ka

binder="AGUUGAGUUGAGUUGAGU (ssRNA) [R18]" measured_attribute=Ka measured_result="11.5 10^6 M-1"
binder="AGUUGAGUUG (ssRNA) [R10]" measured_attribute=Ka measured_result="1.69 10^6 M-1"
binder="AGUUGAGUUGAGUUG (ssRNA) [R15]" measured_attribute=Ka measured_result="7.4 10^6 M-1"

Recorded Ka for AGUUGAGUUGAG (ssRNA) [R12] , please?
2.64 10^6 M-1
